# assayed system: MLLT1 (Homo sapiens)
# Sequence (Q03111 whole entry): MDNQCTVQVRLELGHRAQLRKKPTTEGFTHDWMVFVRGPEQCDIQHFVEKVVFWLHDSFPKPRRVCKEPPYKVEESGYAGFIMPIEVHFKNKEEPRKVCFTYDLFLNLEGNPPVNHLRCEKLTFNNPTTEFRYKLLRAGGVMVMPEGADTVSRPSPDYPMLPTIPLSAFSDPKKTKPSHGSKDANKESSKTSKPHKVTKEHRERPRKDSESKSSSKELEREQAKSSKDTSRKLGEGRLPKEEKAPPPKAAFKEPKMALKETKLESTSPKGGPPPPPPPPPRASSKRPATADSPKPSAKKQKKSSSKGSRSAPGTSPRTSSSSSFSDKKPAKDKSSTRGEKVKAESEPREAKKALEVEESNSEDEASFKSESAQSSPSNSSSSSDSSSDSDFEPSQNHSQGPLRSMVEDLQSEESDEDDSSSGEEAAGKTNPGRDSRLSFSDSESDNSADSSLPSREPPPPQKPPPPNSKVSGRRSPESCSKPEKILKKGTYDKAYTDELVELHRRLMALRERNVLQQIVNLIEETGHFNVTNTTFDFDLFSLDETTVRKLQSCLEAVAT
# test details: biochemical
# condition set: MLLT1 assay IC50 (nM), HTRF, 6His tagged MLLT1, biotinylated H3K9cro peptide; compound 20 μM to 20 nM, 11 data points in duplicate
observation type: IC50

# molecule, IC50
records = [
    ("CN1CCCC1c1cn2cc(NC(=O)c3ccc(-c4cnn(C)c4)cc3F)ccc2n1 (single isomer, unassigned)", "150 to 1500 nM"),
    ("CN1CCCC1(C)c1cn2cc(NC(=O)c3ccc4c(cnn4C)c3)ccc2n1 (racemic)", "150 to 1500 nM"),
    ("Cc1nc(NC(=O)c2cc3cnn(C)c3cc2F)cn2cc([C@H]3CCCN3C)nc12", "< 150 nM"),
]

Pending molecule:
Record CN1C2CCCCC2C[C@@H]1c1cn2cc(NC(=O)c3ccc4c(cnn4C)c3)ccc2n1 (stereo partly shown) , field IC50: 150 to 1500 nM
